# TEST TARGET: human sphingosine-1-phosphate receptor 1 (S1P1) (Homo sapiens, UniProt P21453)
# ASSAY SUMMARY: β-Arrestin2 recruitment assay (PathHunter), S1P1 CHO-K1 cells
# Format: cell-based
# REPORTED CONDITIONS: CHO-K1, β-arrestin2 recruitment; efficacy normalized to maximum efficacy of fingolimod; read-out: hS1P1 B-arrestin2 SPAN
# Sequence (P21453 whole entry): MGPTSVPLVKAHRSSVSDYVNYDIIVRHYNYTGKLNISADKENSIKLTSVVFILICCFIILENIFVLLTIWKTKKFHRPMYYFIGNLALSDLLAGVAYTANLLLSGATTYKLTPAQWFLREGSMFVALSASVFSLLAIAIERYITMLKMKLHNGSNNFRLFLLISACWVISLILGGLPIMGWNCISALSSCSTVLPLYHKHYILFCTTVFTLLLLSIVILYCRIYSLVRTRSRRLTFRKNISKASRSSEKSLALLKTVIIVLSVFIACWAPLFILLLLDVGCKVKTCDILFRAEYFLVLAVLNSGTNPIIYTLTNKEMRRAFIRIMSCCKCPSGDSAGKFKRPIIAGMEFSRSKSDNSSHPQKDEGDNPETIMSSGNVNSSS
# Sequence (P32121 whole entry partner): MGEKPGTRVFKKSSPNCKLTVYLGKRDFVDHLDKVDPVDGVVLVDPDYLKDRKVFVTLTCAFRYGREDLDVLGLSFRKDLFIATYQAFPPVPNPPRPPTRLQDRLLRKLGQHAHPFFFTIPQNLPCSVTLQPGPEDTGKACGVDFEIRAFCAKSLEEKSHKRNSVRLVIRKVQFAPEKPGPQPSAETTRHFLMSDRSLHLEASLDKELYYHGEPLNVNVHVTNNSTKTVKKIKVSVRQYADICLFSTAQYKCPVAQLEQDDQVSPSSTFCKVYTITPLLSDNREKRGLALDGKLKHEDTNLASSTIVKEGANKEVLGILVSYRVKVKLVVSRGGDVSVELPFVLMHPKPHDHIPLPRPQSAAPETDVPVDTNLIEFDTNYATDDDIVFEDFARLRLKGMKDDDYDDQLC
MEASURED ENDPOINT: Emax

INSERT INTO assay_data (chemical_string, test_target, result) VALUES
  ('CCC1(CC)CC(=O)c2cc(-c3nc(-c4cccc(O)c4)no3)ccc2O1', 'human sphingosine-1-phosphate receptor 1 (S1P1) (Homo sapiens, UniProt P21453)', '> 75%'),
  ('CCC1(CC)CC(=O)c2cc(-c3nc(-c4ccccc4Cl)no3)ccc2O1', 'human sphingosine-1-phosphate receptor 1 (S1P1) (Homo sapiens, UniProt P21453)', '> 75%'),
  ('CCCn1nnc2cc(-c3nc(-c4cccc(C)c4)no3)ccc21', 'human sphingosine-1-phosphate receptor 1 (S1P1) (Homo sapiens, UniProt P21453)', '> 75%'),
  ('COc1cc(-c2noc(-c3ccc4c(c3)nnn4C3CC3)n2)ccn1', 'human sphingosine-1-phosphate receptor 1 (S1P1) (Homo sapiens, UniProt P21453)', '< 75%'),
  ('CC(C)Oc1ccc(-c2nc(-c3ccc4c(c3)nnn4C(C)C)no2)cc1C(F)(F)F', 'human sphingosine-1-phosphate receptor 1 (S1P1) (Homo sapiens, UniProt P21453)', '> 75%'),
  ('C=CCn1nnc2cc(-c3noc(-c4ccccc4Br)n3)ccc21', 'human sphingosine-1-phosphate receptor 1 (S1P1) (Homo sapiens, UniProt P21453)', '> 75%'),
  ('Cc1cc(C)cc(-c2noc(-c3ccc4c(c3)nnn4C3CCOCC3)n2)c1', 'human sphingosine-1-phosphate receptor 1 (S1P1) (Homo sapiens, UniProt P21453)', '> 75%'),
  ('C=CCn1nnc2cc(-c3nc(-c4ccccc4)no3)ccc21', 'human sphingosine-1-phosphate receptor 1 (S1P1) (Homo sapiens, UniProt P21453)', '< 75%'),
  ('COc1ccc(-c2nc(-c3ccc4c(c3)nnn4C3CCCC3)no2)cc1', 'human sphingosine-1-phosphate receptor 1 (S1P1) (Homo sapiens, UniProt P21453)', '< 75%'),
  ('CC(C)n1nnc2cc(-c3nsc(-c4ccccc4O)n3)ccc21', 'human sphingosine-1-phosphate receptor 1 (S1P1) (Homo sapiens, UniProt P21453)', '> 75%'),
  ('CCCn1nnc2cc(-c3nc(-c4ccccc4)no3)ccc21', 'human sphingosine-1-phosphate receptor 1 (S1P1) (Homo sapiens, UniProt P21453)', '< 75%'),
  ('CSc1ccccc1-c1nc(-c2ccc3c(c2)nnn3C(C)C)no1', 'human sphingosine-1-phosphate receptor 1 (S1P1) (Homo sapiens, UniProt P21453)', '> 75%'),
  ('CC(C)n1nnc2cc(-c3nc(-c4ccccc4F)co3)ccc21', 'human sphingosine-1-phosphate receptor 1 (S1P1) (Homo sapiens, UniProt P21453)', '> 75%'),
  ('CCC1(CC)CC(=O)c2cc(-c3nc(-c4ccc(C)s4)no3)ccc2O1', 'human sphingosine-1-phosphate receptor 1 (S1P1) (Homo sapiens, UniProt P21453)', '< 75%'),
  ('CC(C)Cn1nnc2cc(-c3nc(-c4ccccc4Cl)no3)ccc21', 'human sphingosine-1-phosphate receptor 1 (S1P1) (Homo sapiens, UniProt P21453)', '< 75%'),
  ('CCC1(CC)CC(=O)c2cc(-c3nc(-c4ccc(C(=O)N(C)C)cc4)no3)ccc2O1', 'human sphingosine-1-phosphate receptor 1 (S1P1) (Homo sapiens, UniProt P21453)', '> 75%'),
  ('Oc1ccc(-c2noc(-c3ccc4c(c3)nnn4C3CCCC3)n2)cc1', 'human sphingosine-1-phosphate receptor 1 (S1P1) (Homo sapiens, UniProt P21453)', '< 75%'),
  ('COc1cccc(-c2noc(-c3ccc4c(c3)nnn4C(C)C)n2)n1', 'human sphingosine-1-phosphate receptor 1 (S1P1) (Homo sapiens, UniProt P21453)', '< 75%'),
  ('Fc1cc(-c2noc(-c3ccc4c(c3)nnn4C3CCCC3)n2)ccc1C(F)(F)F', 'human sphingosine-1-phosphate receptor 1 (S1P1) (Homo sapiens, UniProt P21453)', '< 75%'),
  ('Cc1ccccc1-c1noc(-c2ccc3c(c2)nnn3C(C)(C)C)n1', 'human sphingosine-1-phosphate receptor 1 (S1P1) (Homo sapiens, UniProt P21453)', '> 75%'),
  ('CCC1(CC)CC(=O)c2cc(-c3nc(-c4ccc(N(C)C)cc4)no3)ccc2O1', 'human sphingosine-1-phosphate receptor 1 (S1P1) (Homo sapiens, UniProt P21453)', '< 75%'),
  ('OCCCn1nnc2cc(-c3noc(-c4ccccc4Br)n3)ccc21', 'human sphingosine-1-phosphate receptor 1 (S1P1) (Homo sapiens, UniProt P21453)', '< 75%'),
  ('COc1ccc(-c2nc(-c3cccc4[nH]ccc34)ns2)cc1', 'human sphingosine-1-phosphate receptor 1 (S1P1) (Homo sapiens, UniProt P21453)', '< 75%'),
  ('CCC1(CC)CC(=O)c2cc(-c3nc(-c4cccc(C)c4)no3)ccc2O1', 'human sphingosine-1-phosphate receptor 1 (S1P1) (Homo sapiens, UniProt P21453)', '< 75%');

---

Below is a list of entries, each paired with its recorded Emax value.
# TEST TARGET: human sphingosine-1-phosphate receptor 1 (S1P1) (Homo sapiens)
# ASSAY SUMMARY: Inhibition of cAMP production (HTRF cAMP HiRange), S1P1 CHO-K1 cells
# Assay type: cell-based
# REPORTED CONDITIONS: CHO-K1; inhibition of cAMP production; efficacy normalized to maximum efficacy of fingolimod; read-out: hS1P1 CAMP SPAN
# Sequence (P21453 whole entry): as the sequence (P21453 whole entry) above
MEASURED ENDPOINT: Emax

INSERT INTO assay_data (chemical_string, measured_endpoint, result) VALUES
  ('CC(C)n1nnc2cc(-c3nc(-c4ccc(Oc5ccccc5)cc4)no3)ccc21', 'Emax', '> 75%'),
  ('COc1cccc(-c2nc(-c3ccc4c(ccn4C(C)C)c3)ns2)c1', 'Emax', '< 75%'),
  ('CSc1ccccc1-c1nc(-c2ccc3c(c2)nnn3C2CCCC2)no1', 'Emax', '< 75%'),
  ('COc1ccccc1-c1nsc(-c2ccc3c(c2)nnn3C(C)C)n1', 'Emax', '> 75%'),
  ('CCCn1nnc2cc(-c3nc(-c4ccc(F)cc4)no3)ccc21', 'Emax', '< 75%'),
  ('CC(C)n1nnc2cc(-c3noc(-c4ccccc4Br)n3)ccc21', 'Emax', '> 75%'),
  ('CCC1(CC)CC(=O)c2cc(-c3nc(-c4ccc(S(=O)(=O)N(C)C)cc4)no3)ccc2O1', 'Emax', '< 75%'),
  ('COc1ccccc1-c1nnc(-c2ccc3[nH]oc(=O)c3c2)o1', 'Emax', '< 75%'),
  ('C=CCNc1ccc(-c2nc(-c3ccc4[nH]nnc4c3)no2)cc1C#N', 'Emax', '> 75%');

---

Recorded EC50, one value per entry.
# TEST TARGET: human sphingosine-1-phosphate receptor 1 (S1P1) (Homo sapiens, UniProt P21453)
# ASSAY SUMMARY: Inhibition of cAMP production (HTRF cAMP HiRange), S1P1 CHO-K1 cells
# Format: cell-based
# REPORTED CONDITIONS: inhibition of cAMP production, S1P1; read-out: hS1P1 CAMP pEC50 (converted)
MEASURED ENDPOINT: EC50

INSERT INTO assay_data (molecule, result) VALUES
  ('O=C1c2cc(-c3nc(-c4cccnc4)no3)ccc2OC(CO)(CO)C1Br (stereo not drawn)', '> 316 nM'),
  ('Cc1cccc2nc(-c3ccc4c(c3)nnn4CC(C)C)oc12', '> 316 nM'),
  ('Cc1ccccc1-c1csc(-c2ccc3c(ccn3C(C)C)n2)n1', '> 316 nM'),
  ('CC(C)Cn1nnc2cc(-c3nc4c(Br)cccc4o3)ccc21', '> 316 nM'),
  ('N#Cc1cc(-c2nc(-c3ccc4c(c3)CCC(=O)N4)no2)ccc1NCC(F)(F)F', '< 316 nM'),
  ('N#Cc1cc(-c2nnc(-c3ccc4[nH]cnc4c3)o2)ccc1NC1CC1', '< 316 nM'),
  ('CCC1(CC)CC(=O)c2cc(-c3nc(-c4cncc(NC(C)=O)c4)no3)ccc2O1', '< 316 nM'),
  ('CCC1(CC)CC(=O)c2cc(-c3nc(-c4cccnc4C(F)(F)F)no3)ccc2O1', '< 316 nM'),
  ('Cc1ccncc1-c1noc(-c2cnc3c(c2)nnn3C(C)C)n1', '< 316 nM');

---

# TEST TARGET: human sphingosine-1-phosphate receptor 1 (S1P1) (Homo sapiens)
# ASSAY SUMMARY: β-Arrestin2 recruitment assay (PathHunter), S1P1 CHO-K1 cells
# Type: cell-based
# REPORTED CONDITIONS: CHO-K1; efficacy normalized to maximum efficacy of fingolimod; read-out: hS1P1 B-arrestin2 SPAN
Measured Emax, listed per entry for reference.
MEASURED ENDPOINT: Emax

INSERT INTO assay_data (compound, result) VALUES
  ('CCC1(CC)CC(=O)c2cc(-c3nc(-c4ccnc(NC(C)=O)c4)no3)ccc2O1', '< 75%'),
  ('CCC1(CC)CC(=O)c2cc(-c3nc(-c4ccnc(C(N)=O)c4)no3)ccc2O1', '< 75%'),
  ('CCC1(CC)CC(=O)c2cc(-c3ncc(-c4ccccc4OC)cn3)ccc2O1', '> 75%'),
  ('COc1ccccc1-c1nnc(-c2ccc3c(c2)oc(=O)n3C)o1', '> 75%'),
  ('CC(C)n1ccc2cc(-c3noc(-c4ccncc4F)n3)ccc21', '< 75%'),
  ('CN1C(=O)Cc2cc(-c3nc(-c4cccnc4)no3)ccc21', '< 75%'),
  ('N#Cc1cc(-c2nnc(-c3cccc4[nH]cnc34)o2)ccc1NCC(F)F', '> 75%'),
  ('CCC1CC(=O)c2ccc(-c3nc(-c4cccnc4)no3)cc2O1 (stereo not drawn)', '< 75%'),
  ('CCC1(CC)CC(=O)c2cc(-c3ncc(-c4ccncc4)cn3)ccc2O1', '> 75%');
